B1: Pistol ribozyme (parent)
chain: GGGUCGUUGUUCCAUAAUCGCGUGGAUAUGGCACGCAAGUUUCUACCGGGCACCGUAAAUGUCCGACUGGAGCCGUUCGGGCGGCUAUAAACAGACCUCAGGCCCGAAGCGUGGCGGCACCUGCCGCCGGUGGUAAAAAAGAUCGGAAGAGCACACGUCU

# Variants of: B1
# test protocol: aptazyme ON/OFF ratio, guanine; higher = stronger switching; co-transcriptional cleavage with and without guanine
# aptazyme ON/OFF ratio per record follows
Answer with a number only.

Solved entries (count: 3):
# variant descriptor, obs value
measured = [
    ("U7G U8G U11A C13A", 1.5),
    ("U7G G9C U10A U11G C12G", 1.41),
    ("U7C C12G C13A", 1.18),
]

query: Given the variant U8A G9A U11G C12U , write its reported aptazyme ON/OFF ratio.
result: 1.35

query: Tell me aptazyme ON/OFF ratio reported for G9C U10C C13U
result: 1.1

query: Quote aptazyme ON/OFF ratio reported for U7C U8G G9C U10G U11A C13G please.
result: 1.19

query: Tell me measured aptazyme ON/OFF ratio for G9C U10C U11C C12G C13G please.
result: 1.05

query: Given the variant U8G G9C U11A C12G , write its reported aptazyme ON/OFF ratio.
result: 1.07

query: For the variant U7C U8C U11C C12G C13U , report aptazyme ON/OFF ratio.
result: 1.33

query: Identify measured aptazyme ON/OFF ratio associated with U7C U8A U10C U11G C12U C13A
result: 1.28

query: Specify measured aptazyme ON/OFF ratio for U8G G9U U10C U11A C12G C13G .
result: 1.14

query: Retrieve aptazyme ON/OFF ratio measured for U8C G9U U10A C12G C13U and print it.
result: 1.17

query: Complete the entry with aptazyme ON/OFF ratio for U7G U8G G9C U10C U11C
result: 1.22
